Just for reference, the supplement of paper PMC11196671 is where these values come from.

Reported PET hydrolysis product formed by item:
# assay explanation: PET hydrolysis product formed (TPA+MHET+BHET, UV-Vis) per mg enzyme (mmol/mg enzyme); higher = more PET depolymerisation activity; extreme values may be limits of the assay
# assay context: PET substrate: aFilm; 70 °C; pH 7.5; 24 h
Number, no unit, nothing else.

seq string	PET hydrolysis product formed
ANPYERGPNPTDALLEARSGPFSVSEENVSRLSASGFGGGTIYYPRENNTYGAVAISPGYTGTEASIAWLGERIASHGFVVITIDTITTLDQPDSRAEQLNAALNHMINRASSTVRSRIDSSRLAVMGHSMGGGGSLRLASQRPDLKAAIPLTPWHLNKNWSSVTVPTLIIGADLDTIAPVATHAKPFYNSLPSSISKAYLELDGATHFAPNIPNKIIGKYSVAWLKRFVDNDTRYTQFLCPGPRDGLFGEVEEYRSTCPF [TfCut2]	0
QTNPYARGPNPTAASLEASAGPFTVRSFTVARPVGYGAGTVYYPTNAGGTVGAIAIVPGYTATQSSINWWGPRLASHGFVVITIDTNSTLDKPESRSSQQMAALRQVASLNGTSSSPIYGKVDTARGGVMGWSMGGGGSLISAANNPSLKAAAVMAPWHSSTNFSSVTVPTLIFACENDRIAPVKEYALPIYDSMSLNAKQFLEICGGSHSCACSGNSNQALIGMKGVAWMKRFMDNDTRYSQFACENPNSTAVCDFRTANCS [HotPETase]	0.0761
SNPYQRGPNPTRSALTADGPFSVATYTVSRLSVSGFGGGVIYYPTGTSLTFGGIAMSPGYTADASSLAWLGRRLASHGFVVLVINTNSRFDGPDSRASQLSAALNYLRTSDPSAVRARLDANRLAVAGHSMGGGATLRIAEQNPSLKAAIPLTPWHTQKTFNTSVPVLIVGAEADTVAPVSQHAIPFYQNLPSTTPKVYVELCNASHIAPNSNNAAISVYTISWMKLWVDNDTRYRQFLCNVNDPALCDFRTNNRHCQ [LCC-ICCG DAQI]	2.08
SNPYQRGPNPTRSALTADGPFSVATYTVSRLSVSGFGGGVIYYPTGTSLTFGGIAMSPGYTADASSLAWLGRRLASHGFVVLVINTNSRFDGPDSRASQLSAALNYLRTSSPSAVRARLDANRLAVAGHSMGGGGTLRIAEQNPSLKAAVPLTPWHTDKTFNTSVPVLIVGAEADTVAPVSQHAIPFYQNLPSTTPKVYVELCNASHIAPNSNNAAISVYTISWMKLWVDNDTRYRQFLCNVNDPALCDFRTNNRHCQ [LCC-ICCG]	1.92
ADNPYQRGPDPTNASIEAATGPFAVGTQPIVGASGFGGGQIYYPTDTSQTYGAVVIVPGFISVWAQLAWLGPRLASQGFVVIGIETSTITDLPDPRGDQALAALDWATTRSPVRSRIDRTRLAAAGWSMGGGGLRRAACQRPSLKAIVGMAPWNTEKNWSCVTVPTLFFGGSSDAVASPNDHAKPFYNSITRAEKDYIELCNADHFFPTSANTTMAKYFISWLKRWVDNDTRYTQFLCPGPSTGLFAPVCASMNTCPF [CaPETaseM9]	0

Using the record for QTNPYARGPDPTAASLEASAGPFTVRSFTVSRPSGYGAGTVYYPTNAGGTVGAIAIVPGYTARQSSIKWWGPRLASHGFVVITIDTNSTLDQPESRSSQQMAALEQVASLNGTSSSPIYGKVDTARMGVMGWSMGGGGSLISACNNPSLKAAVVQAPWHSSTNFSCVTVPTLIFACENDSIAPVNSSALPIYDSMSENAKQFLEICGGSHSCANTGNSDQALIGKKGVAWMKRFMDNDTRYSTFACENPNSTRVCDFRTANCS [Z1-PETase] , state its measured PET hydrolysis product formed.
0.00464

Name the recorded PET hydrolysis product formed of the sequence listed here: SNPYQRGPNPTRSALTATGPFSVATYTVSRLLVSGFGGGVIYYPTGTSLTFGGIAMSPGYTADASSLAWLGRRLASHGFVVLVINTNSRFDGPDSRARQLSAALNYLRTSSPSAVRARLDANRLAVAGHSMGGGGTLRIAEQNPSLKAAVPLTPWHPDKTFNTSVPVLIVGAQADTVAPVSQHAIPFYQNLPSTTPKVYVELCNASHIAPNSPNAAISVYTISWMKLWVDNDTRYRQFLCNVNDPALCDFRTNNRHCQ [LCC-ICCG I6M]
0.788

Tell me measured PET hydrolysis product formed for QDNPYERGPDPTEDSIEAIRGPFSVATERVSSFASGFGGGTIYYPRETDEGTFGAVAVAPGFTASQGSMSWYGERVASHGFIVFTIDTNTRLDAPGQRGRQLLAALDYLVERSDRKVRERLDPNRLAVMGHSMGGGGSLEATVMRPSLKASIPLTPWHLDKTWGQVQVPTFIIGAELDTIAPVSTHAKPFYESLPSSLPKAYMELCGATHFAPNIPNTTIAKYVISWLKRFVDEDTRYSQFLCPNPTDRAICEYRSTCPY [Cut190*SS] please.
0.191

Using known records, supply PET hydrolysis product formed for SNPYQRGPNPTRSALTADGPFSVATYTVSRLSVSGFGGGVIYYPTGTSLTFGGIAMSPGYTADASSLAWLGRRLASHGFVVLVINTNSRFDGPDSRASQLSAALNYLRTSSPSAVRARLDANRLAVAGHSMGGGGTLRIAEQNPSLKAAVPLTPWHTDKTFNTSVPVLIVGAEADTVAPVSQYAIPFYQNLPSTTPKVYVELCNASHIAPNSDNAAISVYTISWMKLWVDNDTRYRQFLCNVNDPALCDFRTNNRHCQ [LCC-A2]
2.87

Provide only the value of recorded PET hydrolysis product formed for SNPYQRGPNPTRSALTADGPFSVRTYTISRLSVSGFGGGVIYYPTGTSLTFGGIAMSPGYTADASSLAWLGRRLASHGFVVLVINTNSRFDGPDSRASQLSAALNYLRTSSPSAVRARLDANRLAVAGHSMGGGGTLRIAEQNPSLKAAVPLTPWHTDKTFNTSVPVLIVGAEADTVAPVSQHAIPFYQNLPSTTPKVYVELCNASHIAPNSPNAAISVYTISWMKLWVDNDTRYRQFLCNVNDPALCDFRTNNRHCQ [LCC-ICCG RIP]
1.26

Provide one value: measured PET hydrolysis product formed of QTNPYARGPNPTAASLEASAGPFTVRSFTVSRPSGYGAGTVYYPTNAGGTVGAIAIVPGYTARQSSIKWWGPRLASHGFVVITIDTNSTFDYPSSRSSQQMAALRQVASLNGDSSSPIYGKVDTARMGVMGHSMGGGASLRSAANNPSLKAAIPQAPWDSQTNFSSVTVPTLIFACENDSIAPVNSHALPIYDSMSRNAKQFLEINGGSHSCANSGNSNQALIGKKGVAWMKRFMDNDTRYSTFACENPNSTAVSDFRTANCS [DuraPETase]
0.00371

----------
We begin with a simple list: items and their reported BHET released.
# assay explanation: BHET released, HPLC; higher = more BHET released; extreme values may be limits of the assay
# assay context: PET substrate: aFilm; 60 °C; pH 8.5; 24 h
Give me the value, and tack the unit on after it.

The cases that follow already have their BHET released on record.
seq string	endpoint value
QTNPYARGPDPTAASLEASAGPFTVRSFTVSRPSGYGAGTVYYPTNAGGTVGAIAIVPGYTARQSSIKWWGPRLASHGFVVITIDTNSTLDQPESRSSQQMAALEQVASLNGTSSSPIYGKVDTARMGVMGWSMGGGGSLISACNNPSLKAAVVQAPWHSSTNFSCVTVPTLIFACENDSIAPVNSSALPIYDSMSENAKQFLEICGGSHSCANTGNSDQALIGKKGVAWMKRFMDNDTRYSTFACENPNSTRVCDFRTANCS [Z1-PETase]	0 mM
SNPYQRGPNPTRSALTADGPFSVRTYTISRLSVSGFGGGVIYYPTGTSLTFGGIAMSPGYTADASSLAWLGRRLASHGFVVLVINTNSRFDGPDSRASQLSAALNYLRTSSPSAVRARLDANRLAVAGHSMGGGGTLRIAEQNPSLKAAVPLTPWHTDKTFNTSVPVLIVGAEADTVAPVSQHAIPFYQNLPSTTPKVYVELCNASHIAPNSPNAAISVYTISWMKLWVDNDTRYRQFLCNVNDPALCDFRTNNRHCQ [LCC-ICCG RIP]	0.00205 mM
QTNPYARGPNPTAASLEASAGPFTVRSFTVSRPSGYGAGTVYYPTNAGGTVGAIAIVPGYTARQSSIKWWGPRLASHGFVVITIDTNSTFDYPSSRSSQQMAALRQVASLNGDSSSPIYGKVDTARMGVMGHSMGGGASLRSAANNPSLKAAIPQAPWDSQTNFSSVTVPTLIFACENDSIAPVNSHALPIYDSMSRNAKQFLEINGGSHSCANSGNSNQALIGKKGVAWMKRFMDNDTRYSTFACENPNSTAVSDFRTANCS [DuraPETase]	0 mM
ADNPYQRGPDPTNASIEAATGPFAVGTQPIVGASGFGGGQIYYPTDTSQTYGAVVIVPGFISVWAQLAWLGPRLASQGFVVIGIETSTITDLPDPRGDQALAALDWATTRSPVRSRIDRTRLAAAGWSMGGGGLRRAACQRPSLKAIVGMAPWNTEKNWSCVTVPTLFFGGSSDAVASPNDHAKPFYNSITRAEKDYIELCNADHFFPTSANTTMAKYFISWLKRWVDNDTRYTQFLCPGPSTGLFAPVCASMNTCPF [CaPETaseM9]	0 mM

// next item, BHET released requested
Return value of BHET released for input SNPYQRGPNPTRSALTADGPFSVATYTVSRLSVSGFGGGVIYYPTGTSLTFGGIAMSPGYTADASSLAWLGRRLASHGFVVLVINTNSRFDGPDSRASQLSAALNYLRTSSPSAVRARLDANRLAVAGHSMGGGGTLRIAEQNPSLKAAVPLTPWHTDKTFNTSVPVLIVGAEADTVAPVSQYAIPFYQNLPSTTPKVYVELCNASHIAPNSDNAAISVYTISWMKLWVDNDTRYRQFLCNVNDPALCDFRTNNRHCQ [LCC-A2] , no commentary.
0 mM
